Please respond with reported z-score for every item in the list.
assay: RPMI8226 myeloma cell viability, profiling panel, resazurin fluorescence, basal, 24 h, PK04 Diversity Set (AID 1180); conditions: higher = more signal;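 further: RPMI8826 multiple myeloma cell line at 5000 cells per well; test concentration not given here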
Give bare numbers.

MOLECULE: CN(C)CCCC[C@@H]1NC(=O)[C@@H]2C[C@H](C(=O)NCCCCCNC(=O)CS)[C@H](c3ccc(O)cc3)N2C1=O
PROPERTY MEASURED: z-score
MEASUREMENT: 0.975

For every item below, please supply its z-score.
1. CC(C)[C@H]1NC(=O)[C@@]23C(=O)N[C@@H](Cc4ccccc4)C2[C@H](C)[C@@]2(C)O[C@H]2C3/C=C/C/C=C\CNC(=O)[C@H](C)NC1=O (some centres not stated)
2. CO[C@@H]1COC(=O)[C@H](COCc2ccccc2)NC(=O)CC=C[C@@H](C)[C@H](OC)COC(=O)[C@H](COCc2ccccc2)NC(=O)CC=C[C@H]1C
3. CN1C(=O)C2C=CC(C(O)C3CC=CCC3)N(Nc3ccccc3)C2C1=O (configuration not stated)
4. C#C[C@H](O[Si](C#Cc1ccccc1)(C(C)C)C(C)C)c1ccccc1
5. O=C1c2ccccc2[C@](Cc2ccccc2I)(C(=O)NCc2ccccc2)[C@H](c2ccc(CO)cc2)N1Cc1ccccc1C(F)(F)F

# output
[0.142, 0.415, -0.568, -0.533, 1.21]

# input Quick one: z-score for CCOC(=O)[C@H]1C/C=C/C[C@H](C(=O)OCC)C(=O)O[C@H]2[C@@H](OC)O[C@H](CO)[C@@H](OC(=O)Nc3ccc(Br)cc3)[C@@H]2OC1=O ?
# output -7.26

Source of measurements: PubChem BioAssay
